Below, each entry is listed alongside its reported Yield (%) of indigoid dye, β-glucosidase from Agrobacterium.
Molecular target: β-glucosidase from Agrobacterium (Agrobacterium sp., UniProt P12614)
Construct: purchased Megazyme
Sequence (P12614 1-459): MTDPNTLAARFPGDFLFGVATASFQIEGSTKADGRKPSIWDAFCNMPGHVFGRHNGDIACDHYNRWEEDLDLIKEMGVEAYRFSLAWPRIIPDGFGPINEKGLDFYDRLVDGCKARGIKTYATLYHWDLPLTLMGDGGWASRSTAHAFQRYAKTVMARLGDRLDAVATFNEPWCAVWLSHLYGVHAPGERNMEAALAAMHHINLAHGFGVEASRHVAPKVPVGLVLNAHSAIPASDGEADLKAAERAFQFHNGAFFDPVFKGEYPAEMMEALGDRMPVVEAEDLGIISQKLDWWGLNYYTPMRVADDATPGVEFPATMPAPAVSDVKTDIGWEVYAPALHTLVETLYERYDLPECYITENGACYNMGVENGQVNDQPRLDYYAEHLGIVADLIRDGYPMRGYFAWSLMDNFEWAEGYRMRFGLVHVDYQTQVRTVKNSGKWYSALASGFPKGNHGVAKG
Assay: Indigogenic reaction with β-glucosidase from Agrobacterium
Type: biochemical
Details: indoxyl 100 μM, enzyme 200 nM, 0.05M phosphate buffer pH 7.0, 2% DMF, 37° C., 2 h, three repeats; ε = 1.27 × 10^4 M^−1 cm^−1 measured for 4
Answer format: numeric, % implied, no suffix.

>>> value("C#CCOc1c(Br)cc2[nH]cc(O[C@@H]3O[C@H](CO)[C@@H](O)[C@H](O)[C@H]3O)c2c1Br")
184
>>> value("C#CCOc1ccc2[nH]cc(O[C@@H]3O[C@H](CO)[C@@H](O)[C@H](O)[C@H]3O)c2c1Br")
79

Q: Please provide the recorded Yield (%) of indigoid dye, β-glucosidase from Agrobacterium for "C#CCOc1ccc2[nH]cc(O[C@@H]3O[C@H](CO)[C@@H](O)[C@H](O)[C@H]3O)c2c1" , tested on β-glucosidase from Agrobacterium (Agrobacterium sp., UniProt P12614).
Result: 37

Q: Cool, now "COC(=O)COc1ccc2[nH]cc(O[C@@H]3O[C@H](CO)[C@@H](O)[C@H](O)[C@H]3O)c2c1Br"
Result: 84

Q: Let us now turn to "COc1nc(Oc2ccc3[nH]cc(O[C@@H]4O[C@H](CO)[C@@H](O)[C@H](O)[C@H]4O)c3c2Br)nc(N2CCOCC2)n1"
Result: 150

Q: Another: "COc1nc(Oc2c(Br)cc3[nH]cc(O[C@@H]4O[C@H](CO)[C@@H](O)[C@H](O)[C@H]4O)c3c2Br)nc(N2CCOCC2)n1"
Result: 63
